- system_name: JAK3 (Homo sapiens)
- Sequence (P52333 781-1124 limits assumed): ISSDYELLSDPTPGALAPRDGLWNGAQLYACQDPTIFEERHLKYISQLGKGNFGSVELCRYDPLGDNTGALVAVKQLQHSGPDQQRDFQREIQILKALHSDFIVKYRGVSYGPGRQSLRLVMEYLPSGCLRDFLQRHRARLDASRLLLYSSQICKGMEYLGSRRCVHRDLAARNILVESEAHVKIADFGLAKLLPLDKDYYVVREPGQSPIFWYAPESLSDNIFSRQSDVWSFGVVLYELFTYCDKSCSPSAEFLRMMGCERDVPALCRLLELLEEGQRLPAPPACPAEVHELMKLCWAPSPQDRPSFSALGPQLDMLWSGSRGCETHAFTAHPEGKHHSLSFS
observed_property: IC50 (µM)
Field: numeric (µM). Do not append units.

Measured IC50 (JAK3 (Homo sapiens)), entry N#C/C(=C\c1ccc(O)c(O)c1)C(=O)NCc1ccccc1 [AG490] : 15.4
